- targetOrSystem: Fibroblast growth factor receptor 3 (Homo sapiens) (UniProt P22607);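 further: each value is a mean percent inhibition of FGFR3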
- Sequence (P22607 23-806 limits assumed): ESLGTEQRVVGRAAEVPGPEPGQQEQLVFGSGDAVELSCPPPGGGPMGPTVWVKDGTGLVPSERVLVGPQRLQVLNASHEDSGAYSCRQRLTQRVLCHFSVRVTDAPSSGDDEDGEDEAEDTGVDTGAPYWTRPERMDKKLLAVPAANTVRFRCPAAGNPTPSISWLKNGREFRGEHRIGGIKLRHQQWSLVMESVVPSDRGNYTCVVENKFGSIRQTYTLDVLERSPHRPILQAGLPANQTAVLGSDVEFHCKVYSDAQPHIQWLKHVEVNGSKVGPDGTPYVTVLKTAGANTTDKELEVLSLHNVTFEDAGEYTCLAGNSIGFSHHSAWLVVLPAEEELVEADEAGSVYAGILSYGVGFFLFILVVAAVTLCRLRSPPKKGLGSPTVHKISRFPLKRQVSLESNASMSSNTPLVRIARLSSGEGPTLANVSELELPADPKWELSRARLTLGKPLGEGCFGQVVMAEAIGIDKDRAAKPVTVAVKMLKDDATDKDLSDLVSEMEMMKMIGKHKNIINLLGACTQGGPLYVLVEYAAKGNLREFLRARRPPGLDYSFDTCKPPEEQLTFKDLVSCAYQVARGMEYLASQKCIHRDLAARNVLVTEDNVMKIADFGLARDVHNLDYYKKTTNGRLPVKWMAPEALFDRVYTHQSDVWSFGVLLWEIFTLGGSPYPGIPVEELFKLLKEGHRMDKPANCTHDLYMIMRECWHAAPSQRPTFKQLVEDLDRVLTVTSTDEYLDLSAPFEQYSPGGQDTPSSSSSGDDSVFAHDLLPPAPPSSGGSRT
- conditionParameters: at 0.1 µM
measuredAttribute: inhibition (%)
Answers are plain numbers, in %.

Below: 3 molecules and their reported inhibition.
>>> df
                                 smilesrepr  readoutunit  measuredresult
0     COc1cc(Nc2ncc(-c3ccccc3)o2)cc(OC)c1OC            %            1.69
1  COc1cc(Nc2ncc3c(C)nc(-c4cccc(Oc5ccccc5)c4)n3n2)cc(OC)c1OC            %            3.25
2  CN(C)CCCNc1nccc(-c2c(-c3ccc(F)cc3)nn3cc(C(F)(F)F)ccc23)n1            %            -1.5

Look up inhibition for the entries below, preserving their order.
1. COc1cc(N2CCN(C(C)C)CC2)ccc1Nc1nc(Nc2ccc(F)cc2C(=O)NC[C@@H](O)CO)c2cc[nH]c2n1
2. O=C(Nc1n[nH]c2cc(-c3ccccc3)ccc12)C1CC1
3. COc1ccc2cc(-c3c(-c4ccncc4)nc(-c4ccc(S(C)(=O)=O)cc4C)n3C)ccc2c1
4. COc1ccc(-c2ccc3c(NC(=O)C4CC4)n[nH]c3n2)cc1
5. NS(=O)(=O)c1ccc(Nc2cc(-c3ccc(O)c(F)c3)n[nH]2)cc1

Result:
1.06
6.47
4.02
1.8
1.11

----------
Exercise: for every item that follows, state its recorded inhibition.
- targetOrSystem: cGMP-dependent protein kinase 2 (Homo sapiens) (UniProt Q13237);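 further: mean inhibition of PRKG2 from the GSK PKIS screen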
- Sequence (Q13237 whole entry): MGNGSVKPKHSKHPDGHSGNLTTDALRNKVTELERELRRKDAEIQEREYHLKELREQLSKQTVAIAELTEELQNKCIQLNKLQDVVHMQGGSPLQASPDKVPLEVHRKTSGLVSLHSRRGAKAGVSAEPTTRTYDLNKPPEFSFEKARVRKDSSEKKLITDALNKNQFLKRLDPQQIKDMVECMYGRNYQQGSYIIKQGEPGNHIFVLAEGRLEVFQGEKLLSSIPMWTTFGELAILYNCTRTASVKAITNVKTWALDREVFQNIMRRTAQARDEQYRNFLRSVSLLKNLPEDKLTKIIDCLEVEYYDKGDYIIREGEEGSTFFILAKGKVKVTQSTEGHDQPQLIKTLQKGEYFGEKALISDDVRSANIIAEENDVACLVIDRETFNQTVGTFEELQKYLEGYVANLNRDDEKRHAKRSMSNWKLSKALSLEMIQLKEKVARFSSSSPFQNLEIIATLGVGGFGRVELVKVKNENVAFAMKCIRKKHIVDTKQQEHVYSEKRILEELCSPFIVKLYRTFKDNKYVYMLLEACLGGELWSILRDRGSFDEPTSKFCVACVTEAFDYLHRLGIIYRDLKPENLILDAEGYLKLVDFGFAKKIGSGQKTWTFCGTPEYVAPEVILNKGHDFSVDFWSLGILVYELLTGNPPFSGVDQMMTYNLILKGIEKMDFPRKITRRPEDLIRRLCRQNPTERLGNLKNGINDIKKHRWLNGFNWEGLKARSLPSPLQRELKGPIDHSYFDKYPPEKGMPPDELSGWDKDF
- conditionParameters: at 1 µM
I'd appreciate it if you included the unit after the number.

Field: example entries. Status: answers known.
                                 smilesrepr  measuredattribute  measuredresult
0  CS(=O)(=O)CCNCc1cc(-c2cc3c(Nc4ccc(OCc5cccc(F)c5)c(Cl)c4)ncnc3s2)cs1         inhibition           4.67%
1  Cc1ccc(C(=O)NC(C)C)cc1-c1ccc(C(=O)NCC2CC2)cc1         inhibition          -0.98%

Task: // returns reported inhibition for input Fc1ccc(-c2c(-c3ccncc3)nc3n2CCS3)cc1
Result: 7.38%

----------
- targetOrSystem: Serine/threonine-protein kinase 26 (Homo sapiens) (UniProt Q9P289);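 further: mean inhibition of MST4 kinase activity, reported from the GSK PKIS inhibitor-set screening panel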
- Sequence (Q9P289 2-416 limits assumed): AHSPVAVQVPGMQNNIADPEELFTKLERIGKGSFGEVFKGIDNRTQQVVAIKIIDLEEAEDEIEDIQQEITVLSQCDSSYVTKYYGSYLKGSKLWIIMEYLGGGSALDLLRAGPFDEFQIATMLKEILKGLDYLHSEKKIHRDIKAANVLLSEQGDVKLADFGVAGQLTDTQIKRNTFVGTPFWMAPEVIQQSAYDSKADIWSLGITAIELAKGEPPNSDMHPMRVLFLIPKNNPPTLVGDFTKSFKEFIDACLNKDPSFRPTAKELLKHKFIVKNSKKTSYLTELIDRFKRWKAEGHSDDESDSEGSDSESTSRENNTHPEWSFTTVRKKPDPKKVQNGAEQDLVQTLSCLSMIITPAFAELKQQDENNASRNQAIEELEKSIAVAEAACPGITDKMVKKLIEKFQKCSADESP
- conditionParameters: at 1 µM
Field: inhibition. Provide a value for each of the compounds that follow.
One number for each entry, in %.

>>> df
                                 smilesrepr  measuredattribute  readoutunit  measuredresult
0  Fc1ccc(-c2ncn(C3CCNCC3)c2-c2ccnc(Oc3ccc(F)c(F)c3)n2)cc1         inhibition            %            5.23
1  O=C(NCC1CC1)c1ccc(-c2cccc(C(=O)NC3CC3)c2)cc1         inhibition            %           -6.13
2  Fc1ccc(-c2ncn(C3CCNCC3)c2-c2ccnc(Oc3ccc4c(c3)OCO4)n2)cc1         inhibition            %           -0.15
3  O=C(Nc1n[nH]c2nc(-c3ccc(O)cc3)c(Br)cc12)C1CC1         inhibition            %              35
4  COc1cccc(-n2cnc3c(N/N=C/c4ccncc4)ncnc32)c1         inhibition            %           -2.88
5  N#Cc1ccc(Oc2nccc(-c3c(-c4ccc(F)cc4)ncn3C3CCNCC3)n2)cc1         inhibition            %           -2.91
6  O=C1NC(=O)C(c2cccc(Cl)c2)=C1Nc1ccc(Cl)c(C(=O)O)c1         inhibition            %            0.53
7  CN(C)CCCNc1nccc(-c2c(-c3ccc(F)cc3)nn3cc(C(F)(F)F)ccc23)n1         inhibition            %            0.55
8        CNC(=O)c1cncc(/C=C/c2c(C)cccc2C)c1         inhibition            %            2.22
9  CCC(=O)Nc1ccc(C)c(-c2ccc(C(=O)NCC3CC3)cc2)c1         inhibition            %           -3.71

Value sought for every listed compound: inhibition.
1. CCc1nccc2c1nc(-c1nonc1N)n2CC
2. C/C(Nc1ccc(S(N)(=O)=O)cc1)=C1/C(=O)Nc2ccccc21

Result:
[-1.83, 15.6]

----------
Record form. Attribute: inhibition. Fill in for each entry.
- targetOrSystem: Serine/threonine-protein kinase Chk2 (Homo sapiens) (UniProt O96017)
- Sequence (O96017 whole entry): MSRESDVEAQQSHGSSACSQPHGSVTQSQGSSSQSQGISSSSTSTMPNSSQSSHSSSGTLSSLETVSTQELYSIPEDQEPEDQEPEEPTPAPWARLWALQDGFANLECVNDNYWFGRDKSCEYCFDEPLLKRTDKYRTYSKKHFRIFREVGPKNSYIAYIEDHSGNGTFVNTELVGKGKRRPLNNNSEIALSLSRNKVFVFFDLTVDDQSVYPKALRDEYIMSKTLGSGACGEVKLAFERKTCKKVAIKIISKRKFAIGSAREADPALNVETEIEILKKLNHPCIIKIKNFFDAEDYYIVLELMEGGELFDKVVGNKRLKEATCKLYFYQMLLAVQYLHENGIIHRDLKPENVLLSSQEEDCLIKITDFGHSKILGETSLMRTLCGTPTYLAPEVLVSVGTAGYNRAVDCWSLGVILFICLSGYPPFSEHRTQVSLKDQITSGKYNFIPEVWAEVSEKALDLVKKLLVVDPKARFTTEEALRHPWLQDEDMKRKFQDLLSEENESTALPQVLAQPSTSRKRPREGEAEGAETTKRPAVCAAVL
- conditionParameters: at 0.1 µM
- Description: GSK_PKIS: CHEK2 mean inhibition at 0.1 uM [Nanosyn]
Put down the number, then write its unit next to it.

>>> df
                                   compound  measuredresult
0              CCc1nccc2c1nc(-c1nonc1N)n2CC          -1.09%
1  Cc1ccc(C(=O)NC2CCC2)cc1-c1ccc(C(=O)NCC2CC2)cc1           1.83%
2  O=C(Nc1n[nH]c2cc(-c3cc(F)ccc3F)ccc12)C1CC1           2.67%
3  CCN(CC)Cc1ccc(Nc2nccc(-c3cnn4ncccc34)n2)cc1            2.5%
4  O=C(NCC1CC1)c1ccc(-c2cccc(C(=O)NC3CC3)c2)cc1           0.96%

Provide each entry's inhibition from the list below.
1. c1ccc(-c2n[nH]cc2-c2ccnc(-c3ccc(OCCN4CCOCC4)cc3)c2)nc1
2. NS(=O)(=O)c1ccc(N/N=C2\C(=O)Nc3ccc(-c4cnco4)cc32)cc1
3. NCc1ccc(-n2c(-c3nonc3N)nc3cnccc32)cc1

Result:
1: 3.21%; 2: 0.92%; 3: 2.9%

Provide inhibition values for the following items, in order.
1. C/C(Nc1ccc(S(N)(=O)=O)cc1)=C1/C(=O)Nc2ccccc21
2. NC(=O)c1cc(-c2ccc(F)cc2)cc(-c2ccncc2)c1N
3. C#Cc1cccc(Nc2ncnc3ccc(OCCCCNCCS(C)(=O)=O)cc23)c1
4. COC(=O)Nc1nc2ccc(Sc3ccc(NC(=O)Nc4cc(C(F)(F)F)ccc4F)cc3)cc2[nH]1
5. COc1cc2ncn(-c3cc(OCc4cccs4)c(C(N)=O)s3)c2cc1OC
6. Fc1ccc(-c2nc3n(c2-c2ccncc2)CCS3)cc1
7. Fc1ccc(-c2ncn(C3CCNCC3)c2-c2ccnc(Oc3ccc(F)c(F)c3)n2)cc1

Result:
1. -0.44%
2. 3%
3. 2.64%
4. -0.98%
5. 2.01%
6. 2.74%
7. 2.5%

Give me inhibition for each of these compounds, listed below.
1. NC(=O)Cc1ccccc1Oc1nccc(-c2c(-c3ccc(F)cc3)ncn2C2CCNCC2)n1
2. O=C(Nc1n[nH]c2nc(-c3ccc(O)cc3)c(Br)cc12)C1CC1
3. O=C1Nc2ccccc2/C1=C/Nc1ccc(-n2cncn2)cc1
4. COc1cc(Nc2ncc(-c3ccccc3)o2)cc(OC)c1OC
5. COc1cc(Nc2ncc3c(C)nc(-c4cccc(C(F)(F)F)c4)n3n2)cc(OC)c1OC
6. COc1ccc2cc(-c3c(-c4ccncc4)nc(-c4ccc([S+](C)[O-])cc4C)n3C)ccc2c1 (configuration not stated)

Result:
1: 4.2%; 2: 2.09%; 3: 3.98%; 4: -3.16%; 5: 6.47%; 6: -6.42%

I'm hoping you can list inhibition for every compound here, please.
1. N#Cc1ccc(Oc2nccc(-c3c(-c4ccc(F)cc4)ncn3C3CCNCC3)n2)cc1
2. O=C(Nc1n[nH]c2nc(-c3ccco3)ccc12)C1CC1
3. O=C1Nc2ccc(I)cc2C1=Cc1cc(Br)c(O)c(Br)c1
4. COc1cc2ncn(-c3cc(OCCc4ccccc4)c(C(N)=O)s3)c2cc1OC
5. COc1ccc2cc(-c3c(-c4ccncc4)nc(-c4ccc(S(C)(=O)=O)cc4C)n3C)ccc2c1
6. Fc1ccc(-c2ncn(C3CCNCC3)c2-c2ccnc(Oc3ccc4c(c3)OCO4)n2)cc1
7. NC(=O)c1cc(-c2ccncc2)cc(-c2ccccc2)c1N
8. COc1ccc(C2=C(N3CCc4ccccc43)C(=O)NC2=O)cc1

Result:
["4.28%", "4.66%", "4.44%", "1.58%", "-2.23%", "-2.12%", "-1.34%", "3.04%"]

----------
- targetOrSystem: MAP kinase-interacting serine/threonine-protein kinase 2 (Homo sapiens)
- conditionParameters: at 1 µM
- Description: GSK_PKIS: MNK2 mean inhibition at 1 uM [Nanosyn]
measuredAttribute: inhibition (%)
Numbers only, in %.

>>> df
                                 smilesrepr  measuredattribute  measuredresult
0  Fc1ccc(-c2ncn(C3CCNCC3)c2-c2ccnc(Oc3ccc4c(c3)OCO4)n2)cc1         inhibition            6.88

Give measured inhibition for every item shown.
1. COc1ccc2cc(-c3c(-c4ccncc4)nc(-c4ccc(S(C)(=O)=O)cc4C)n3C)ccc2c1
2. CCc1nccc2c1nc(-c1nonc1N)n2CC
3. COc1cc2ncn(-c3cc(OCCc4ccccc4)c(C(N)=O)s3)c2cc1OC

Result:
3.34
4.5
12.8
